system: P388; assay: Antiproliferative activity against mouse P388 cells at 0.1 ug after 48 hrs by two-layer agar-diffusion method; assay type: functional; settings: read-out: IZ
Measurement kind: zone of inhibition at 0.1 µg/disc (mm)
// return numeric value only (unit: mm, not printed)

Check out these entries, answers already filled in.
CC[C@]1(O)C[C@@H]2CN(CCc3c([nH]c4ccccc34)[C@@](C(=O)OC)(c3cc4c(cc3OC)N(C)[C@H]3[C@@](O)(C(=O)OC)[C@H](OC(C)=O)[C@]5(CC)C=CCN6CC[C@]43[C@@H]65)C2)C1 [VINBLASTINE] : 32.5
COc1cc([C@@H]2c3cc4c(cc3[C@H](O)[C@H]3COC(=O)[C@H]23)OCO4)cc(OC)c1OC [PODOFILOX] : 32.5

[in] Would you mind telling me what zone of inhibition at 0.1 µg/disc value was observed for CN(Cc1cnc2nc(N)nc(N)c2n1)c1ccc(C(=O)N[C@@H](CCC(=O)O)C(=O)O)cc1 [METHOTREXATE] ?
[out] 27.5

---

test system: HT-29; assay: Antiproliferative activity against human HT-29 cells at 1 ug after 48 hrs by two-layer agar-diffusion method; type: functional; conditions: read-out: IZ
Criterion: zone of inhibition at 1 µg/disc meeting or surpassing 30 mm. Met: Criterion met. Not met: Criterion not met.

Nc1ncn([C@@H]2O[C@H](CO)[C@@H](O)[C@H]2O)c(=O)n1 : Criterion not met
COc1cccc2c1C(=O)c1c(O)c3c(c(O)c1C2=O)C[C@@](O)(C(=O)CO)C[C@@H]3O[C@H]1C[C@H](N)[C@H](O)[C@H](C)O1 : Criterion not met
CO[C@H](C(=O)[C@@H](O)[C@@H](C)O)[C@@H]1Cc2cc3cc(O[C@H]4C[C@@H](O[C@@H]5C[C@@H](O)[C@H](O)[C@@H](C)O5)[C@H](O)[C@@H](C)O4)c(C)c(O)c3c(O)c2C(=O)[C@H]1O[C@H]1C[C@@H](O[C@@H]2C[C@@H](O)[C@@H](O[C@@H]3C[C@](C)(O)[C@H](O)[C@@H](C)O3)[C@@H](C)O2)[C@H](O)[C@@H](C)O1 : Criterion not met
COc1cc2c(c(OC)c1OC)-c1ccc(OC)c(=O)cc1[C@@H](NC(C)=O)CC2 : Criterion met
COc1cccc2c1C(=O)c1c(O)c3c(c(O)c1C2=O)C[C@@](O)(C(C)=O)C[C@@H]3O[C@H]1C[C@H](N)[C@H](O)[C@H](C)O1 : Criterion not met

[in] Determine whether measured zone of inhibition at 1 µg/disc meets or exceeds 30 mm for `COc1cc([C@@H]2c3cc4c(cc3[C@H](O)[C@H]3COC(=O)[C@H]23)OCO4)cc(OC)c1OC`
[out] Criterion met

[in] Determine whether measured zone of inhibition at 1 µg/disc meets or exceeds 30 mm for `CO[C@@]12[C@H](COC(N)=O)C3=C(C(=O)C(C)=C(N)C3=O)N1C[C@@H]1N[C@@H]12`
[out] Criterion not met

[in] Determine whether measured zone of inhibition at 1 µg/disc meets or exceeds 30 mm for `CC[C@H]1CN2CCc3cc(OC)c(OC)cc3[C@@H]2C[C@@H]1C[C@H]1NCCc2cc(OC)c(OC)cc21`
[out] Criterion met

[in] Determine whether measured zone of inhibition at 1 µg/disc meets or exceeds 30 mm for `CC[C@]1(O)C[C@@H]2CN(CCc3c([nH]c4ccccc34)[C@@](C(=O)OC)(c3cc4c(cc3OC)N(C)[C@H]3[C@@](O)(C(=O)OC)[C@H](OC(C)=O)[C@]5(CC)C=CCN6CC[C@]43[C@@H]65)C2)C1`
[out] Criterion met
